Source: patent US20160215040A1

biological target: T1, Ebola virus GP with a C-terminal polyhistidine tag (Sino Biologicals, Catalog #40442-V08B1) (Ebola virus, UniProt P87666 33-650); assay: SPR 25C, mAb captured
T1 construct: also called EbolaGP.his; Ebola virus GP.his
Could you please report measured kon for the items listed next?
# unit: M⁻¹ s⁻¹ | format: bare number

So for H1H17151P (antibody, V domains shown) VH: EVQLVESGGGLVQPGGSLRLSCAASGFTFSSYAMNWVRQAPGKGLEWVSVISGSGGWRNYADSVKGRITISRDNSKNTLYLQMNNLRAEDTAVYYCAKDRGATFGVVILGPPYYGMDVWGQGTTVTVSS VL: DIQMTQSPSSLSASVRDRVTITCRASQSISTYLNWYQQKPGKAPKLLIYAASSLQSGVPSRFSGSGSGTGFTLTISSLQPEDFATYYCQQSYSIPYTFGQGTKLEIK , the logged kon turned out to be 12600

So for H1H17223P (antibody, V domains shown) VH: EVQLVESGGGLVQPGGSLRLSCAASGFTFRTYDMHWVRQATGKGLEWVSAIGTAGDTYYPGSVKGRFTISRENAKNSLYLQMNSLRAGDTAVYYCARTIFGVVLTFDYWGQGTLVTVSS VL: DIQMTQSPSSLSASVGDRVTITCRASQSISSSLNWYQQKPGKAPKLLIYAASSLHSGVPSRFSGSGSGTDFTLTISSLQPEDFATYYCQQTYSIPPTTFGQGTKVEIK , the logged kon turned out to be 30000
